The origin of these recorded values is PubChem BioAssay AID1159580.

// values below are reported normalized growth
test: chemical genetic growth profiling, strain panel (AID 1159580);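 further: tested at 20 µM; growth read once vehicle control cultures reached saturation at 30 °C; 1 = growth at the plate median or of vehicle wells; lower values mean less growth of the strain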; conditions: S. cerevisiae deletion strains, growth OD, locus YIL073C, strain SPO22, hits give low values
Hit rate of the full screen: of about 5,500 compounds, about 2,000 (36%) were called active. Not shown: some 18% with an inconclusive outcome. The list shows a part of the results.
API note: the answer field is a bare number with no unit suffix.

Answered examples (5):
Consider the compound O=c1c(-c2ccc(O)cc2)coc2cc(O)cc(O)c12 and give its measured normalized growth.
1.13

Item COc1ccc(-c2coc3cc(OC)cc(O)c3c2=O)cc1 has what recorded normalized growth?
0.905

So what does the record say about normalized growth for COc1c(O)cccc1O ?
1.14

Quick one: normalized growth of CC(=O)OC1CC2C(C)(C)CCCC2(C)C2CCC3(C)C(c4ccoc4)OC(=O)C4OC43C12C (stereo unspecified) ?
1.02

Would you mind telling me what normalized growth value was observed for O=c1c(-c2ccccc2)coc2cc(O)cc(O)c12 ?
0.76

Okay, now this compound:
# lookup: normalized growth of COc1c(O)cc2c(-c3ccccc3)cc(=O)oc2c1OC
0.905
